- ASSAY_PROTOCOL: Permeability of compound at 100 ug/ml after 18 hrs by PAMPA
- Format: ADME
- RUN_CONDITIONS: read-out: permeability
OBSERVABLE: Papp at 18 h, 100 ug/ml (×10⁻⁶ cm/s)
Answers are plain numbers, in ×10⁻⁶ cm/s.

[Q] Consider the compound shown here: CN(C)c1ccc(/C=C/C(=O)c2ccc(OC(=O)N3CCCC3)cc2O)cc1 What is its recorded Papp at 18 h, 100 ug/ml?
[A] 7.03

###

- TESTED_TARGET: Amine oxidase [flavin-containing] A (Homo sapiens, UniProt P21397)
- Sequence (P21397 whole entry): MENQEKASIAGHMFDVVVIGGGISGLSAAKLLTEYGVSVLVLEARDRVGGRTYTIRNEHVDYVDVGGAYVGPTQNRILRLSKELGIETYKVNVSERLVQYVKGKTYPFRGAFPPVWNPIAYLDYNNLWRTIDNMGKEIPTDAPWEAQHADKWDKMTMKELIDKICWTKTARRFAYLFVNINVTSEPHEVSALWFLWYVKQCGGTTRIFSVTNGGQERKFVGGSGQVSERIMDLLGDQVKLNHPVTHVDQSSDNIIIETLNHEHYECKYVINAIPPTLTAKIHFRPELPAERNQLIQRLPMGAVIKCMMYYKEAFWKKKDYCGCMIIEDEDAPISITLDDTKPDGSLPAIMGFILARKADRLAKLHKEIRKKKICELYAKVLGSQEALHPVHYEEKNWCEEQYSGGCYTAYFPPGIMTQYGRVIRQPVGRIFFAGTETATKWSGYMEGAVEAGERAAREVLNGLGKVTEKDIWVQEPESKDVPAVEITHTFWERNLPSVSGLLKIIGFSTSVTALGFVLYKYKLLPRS
- ASSAY_PROTOCOL: Inhibition of recombinant human MAO-A expressed in baculovirus infected High 5 insect cells at 10 uM using kynuramine as substrate incubated for 30 mins by spectrofluorometric method relative to control
- RUN_CONDITIONS: 0.5 h
OBSERVABLE: inhibition at 10 µM (%)
Numbers only, in %.

Example entries begin here.
MOL | TESTED_TARGET | OBSERVABLE | VALUE_UNITS | QUANTITATIVE_READOUT
O=C(/C=C/c1ccc(N2CCCCC2)cc1)c1ccc(OC(=O)N2CCCC2)cc1O | Amine oxidase [flavin-containing] A (Homo sapiens, UniProt P21397) | inhibition at 10 µM | % | 19.6
CCN1CCN(C(=O)Oc2ccc(C(=O)/C=C/c3ccc(N(C)C)cc3)c(O)c2)CC1 | Amine oxidase [flavin-containing] A (Homo sapiens, UniProt P21397) | inhibition at 10 µM | % | 42.5

Provide each entry's inhibition at 10 µM from the list below.
1. CN(C)c1ccc(/C=C/C(=O)c2ccc(OC(=O)N3CCCCC3)cc2O)cc1
2. CN(C)c1ccc(/C=C/C(=O)c2ccc(OC(=O)N3CCOCC3)cc2OC(=O)N2CCOCC2)cc1
3. CN1CCN(C(=O)Oc2ccc(C(=O)/C=C/c3ccc(N(C)C)cc3)c(O)c2)CC1
4. CN(C)c1ccc(/C=C/C(=O)c2ccc(OC(=O)N3CCN(Cc4ccccc4)CC3)cc2O)cc1
5. CCN(CC)c1ccc(/C=C/C(=O)c2ccc(OC(=O)N3CCCC3)cc2O)cc1
6. O=C(/C=C/c1ccc(N2CCCC2)cc1)c1ccc(OC(=O)N2CCCC2)cc1O
7. O=C(/C=C/c1ccc(N2CCOCC2)cc1)c1ccc(OC(=O)N2CCCC2)cc1O

[A]
[27.8, 15, 49.5, 42.1, 21, 15.2, 15.2]
